Biological target: T1, P294A
T1 construct: % monomer 89.16; also called MICA*008.mIgG2a P294A
T1 chain: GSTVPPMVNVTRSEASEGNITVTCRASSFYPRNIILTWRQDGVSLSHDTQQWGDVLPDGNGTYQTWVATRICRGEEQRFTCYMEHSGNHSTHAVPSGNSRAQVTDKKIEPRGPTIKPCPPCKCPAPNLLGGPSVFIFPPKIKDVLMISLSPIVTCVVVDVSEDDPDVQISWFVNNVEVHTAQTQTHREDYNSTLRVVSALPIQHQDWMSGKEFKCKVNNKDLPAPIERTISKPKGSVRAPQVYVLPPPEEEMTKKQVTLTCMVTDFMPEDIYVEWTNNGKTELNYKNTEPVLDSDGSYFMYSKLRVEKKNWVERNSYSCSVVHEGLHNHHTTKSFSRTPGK
Experiment: SPR, Fab over captured MICA*008.mIgG2a Ala variant; KD relative to wild type
MEASURED METRIC: fold-decrease in affinity
The answer should be written as a number, with no unit following it.

Recorded results for 3 binders are shown here.
BINDER	fold-decrease in affinity
7D4.6 Fab (Fab, V domains shown) VH: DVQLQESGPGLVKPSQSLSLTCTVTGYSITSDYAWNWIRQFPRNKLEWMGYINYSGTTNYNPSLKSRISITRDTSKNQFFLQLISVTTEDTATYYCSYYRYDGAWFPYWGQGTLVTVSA VL: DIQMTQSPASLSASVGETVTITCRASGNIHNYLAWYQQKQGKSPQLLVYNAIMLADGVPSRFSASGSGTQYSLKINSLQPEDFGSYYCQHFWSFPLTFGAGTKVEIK	1
6F8.7 Fab (Fab, V domains shown) VH: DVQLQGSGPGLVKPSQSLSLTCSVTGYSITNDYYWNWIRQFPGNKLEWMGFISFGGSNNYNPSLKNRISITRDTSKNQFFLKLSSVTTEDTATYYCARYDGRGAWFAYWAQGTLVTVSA VL: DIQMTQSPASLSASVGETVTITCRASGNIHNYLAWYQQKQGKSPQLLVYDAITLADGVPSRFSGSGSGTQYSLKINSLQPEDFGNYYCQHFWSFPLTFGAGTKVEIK	0.9
2E5.2.3 Fab (Fab, V domains shown) VH: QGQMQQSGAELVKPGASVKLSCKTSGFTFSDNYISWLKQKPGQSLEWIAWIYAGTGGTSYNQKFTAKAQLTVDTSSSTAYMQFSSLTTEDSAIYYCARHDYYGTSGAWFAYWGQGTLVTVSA VL: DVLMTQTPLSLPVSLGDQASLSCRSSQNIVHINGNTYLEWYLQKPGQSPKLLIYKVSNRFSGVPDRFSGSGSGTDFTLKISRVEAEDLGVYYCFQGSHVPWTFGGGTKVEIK	1

Lab note: next binder to report on.
Which fold-decrease in affinity is reported for this binder? 1D5 Fab (Fab, V domains shown, Expressed in E. coli as chimera of murine variable and human constant domains; not shown: human IgG1 CH1 constant domain; human kappa CL constant domain) VH: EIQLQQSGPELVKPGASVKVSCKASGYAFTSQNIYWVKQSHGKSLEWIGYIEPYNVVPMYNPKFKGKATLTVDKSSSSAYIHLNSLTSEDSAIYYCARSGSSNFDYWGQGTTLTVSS VL: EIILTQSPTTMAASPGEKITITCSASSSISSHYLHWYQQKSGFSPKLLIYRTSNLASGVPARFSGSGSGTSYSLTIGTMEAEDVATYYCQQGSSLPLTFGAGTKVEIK 1
